- System: batrachotoxin (BTX) binding site of the sodium channel
- method notes: Affinity to the batrachotoxin (BTX) binding site of the sodium channel
- details: rat cerebrocortex synaptosomes, [3H]-batrachotoxinin A20 α-benzoate 10 nM; test concentration not given
measured metric: BTX Inhibition
One number for each entry.

Worked examples, 6 compounds total:
INSERT INTO measurements (compound, measured_metric, observed_measurement) VALUES
  ('O=C1C(Cc2ccccc2)NC2(CCN(S(=O)(=O)c3ccc([N+](=O)[O-])cc3)CC2)N1Cc1ccccc1 (stereo not shown)', 'BTX Inhibition', 51),
  ('CCC(C)(C)c1ccc(S(=O)(=O)N2CCC3(CC2)NCC(=O)N3Cc2ccccc2C#N)cc1', 'BTX Inhibition', 56),
  ('O=C1C(Cc2ccccc2)NC2(CCN(C(=S)Nc3cc(C(F)(F)F)ccc3Cl)CC2)N1Cc1ccccc1F (stereo not shown)', 'BTX Inhibition', 77),
  ('CCCCOc1ccc(S(=O)(=O)N2CCC3(CC2)NC(Cc2ccccc2)C(=O)N3CC(=O)OCC)cc1 (stereo not shown)', 'BTX Inhibition', 52),
  ('CSCCC1NC2(CCN(S(=O)(=O)c3ccccc3Cl)CC2)N(Cc2ccccc2[N+](=O)[O-])C1=O (stereo not shown)', 'BTX Inhibition', 71),
  ('C#CCN1C(=O)C(CC(C)C)NC12CCN(C(=S)Nc1c(Cl)cccc1Cl)CC2 (stereo not shown)', 'BTX Inhibition', 53);

Give me BTX Inhibition for each of these compounds, listed below.
1. COC(=O)c1ccccc1NC(=S)N1CCC2(CC1)NC(CCSC)C(=O)N2Cc1ccccc1C#N (stereo not shown)
2. C=CCNC(=S)N1CCC2(CC1)NC(CCSC)C(=O)N2Cc1ccccc1C#N (stereo not shown)
3. O=C(Nc1cc(F)ccc1F)N1CCC2(CC1)NC(Cc1ccccc1)C(=O)N2Cc1ccccc1F (stereo not shown)
4. CCCCN1C(=O)C(CCSC)NC12CCN(C(=S)Nc1ccc(F)cc1)CC2 (stereo not shown)

[53, 36, 78, 41]

Give me BTX Inhibition for each of these compounds, listed below.
1. CSCCC1NC2(CCN(C(=S)NCc3ccc(F)cc3)CC2)N(Cc2ccc(F)cc2)C1=O (stereo not shown)
2. CC(C)C1NC2(CCN(C(=S)Nc3cc(F)ccc3F)CC2)N(Cc2ccccc2)C1=O (stereo not shown)
3. C=CCN1C(=O)C(C(C)C)NC12CCN(C(=O)Nc1ccc(OC(F)(F)F)cc1)CC2 (stereo not shown)

1: 69; 2: 39; 3: 44

Give me BTX Inhibition for each of these compounds, listed below.
1. CCOC(=O)NC(=S)N1CCC2(CC1)NC(CCSC)C(=O)N2Cc1ccccc1C#N (stereo not shown)
2. C=CCN1C(=O)C(C(C)C)NC12CCN(S(=O)(=O)c1c(C)cc(C)cc1C)CC2 (stereo not shown)
3. CC(C)C1NC2(CCN(C(=S)NCc3ccc(F)cc3)CC2)N(Cc2ccccc2)C1=O (stereo not shown)

1. 30
2. 60
3. 58
